Quick reference for SPOT peptide array binding signal intensity among some binders
- experimental_target: SpBbc1
- method: SPOT peptide array binding signal intensity (averaged, normalized) (arbitrary units (background-subtracted, floor 0; scale differs between SH3 domains)); higher = stronger binding of the SH3 domain to the peptide
Please respond with just the number, no unit label.

TTNRGPPPLPPRANV | 106

// moving on: another record for SPOT peptide array binding signal intensity
The binder listed as MFLISPPASPPPEFD shows SPOT peptide array binding signal intensity equal to 0.5
